Values from ChEMBL document CHEMBL1149559

Recorded MBC, one value per entry.
- System: Staphylococcus aureus
- assay-protocol: Antibacterial activity against methicillin-resistant Staphylococcus aureus CMAH 0515 by broth microdilution method
- Format: functional
Quick reminder: number only, in mg/L, skip the unit.

Return reported MBC. Input compound: C=CC1C[N+]2(CC(=O)c3ccc([N+](=O)[O-])cc3)CCC1CC2[C@H](O)c1ccnc2ccc(OC)cc12.[Br-] (stereo not given in full)
50

Return reported MBC. Input compound: C=CC1C[N+]2(CC(=O)c3ccc(OC)cc3)CCC1CC2[C@H](O)c1ccnc2ccc(OC)cc12.[Br-] (stereo not given in full)
50

Return reported MBC. Input compound: C=CC1C[N+]2(CC(=O)c3ccc(Br)cc3)CCC1CC2[C@H](O)c1ccnc2ccc(OC)cc12.[Br-] (stereo not given in full)
6.25

Return reported MBC. Input compound: C=CC1C[N+]2(CC(=O)c3cccc4ccccc34)CCC1CC2[C@H](O)c1ccnc2ccc(OC)cc12.[Br-] (stereo not given in full)
1.56

Return reported MBC. Input compound: C=CC1C[N+]2(CC(=O)c3ccccc3)CCC1CC2[C@H](O)c1ccnc2ccc(OC)cc12.[Br-] (stereo not given in full)
25

---

- System: Staphylococcus aureus
- assay-protocol: Antibacterial activity against methicillin-resistant Staphylococcus aureus CMAH 0430 by disk diffusion method
- Format: functional
readout-label: inhibition zone (IZ) (mm)
Quick reminder: number only, in mm, skip the unit.

Return reported inhibition zone (IZ). Input compound: `Cc1nnc(SCC2=C(C(=O)O)N3C(=O)[C@@H](NC(=O)Cn4cnnn4)[C@H]3SC2)s1`
2

Return reported inhibition zone (IZ). Input compound: `CN[C@H](CC(C)C)C(=O)N[C@H]1C(=O)N[C@@H](CC(N)=O)C(=O)N[C@H]2C(=O)N[C@H]3C(=O)N[C@H](C(=O)N[C@H](C(=O)O)c4cc(O)cc(O)c4-c4cc3ccc4O)[C@H](O)c3ccc(c(Cl)c3)Oc3cc2cc(c3O[C@@H]2O[C@H](CO)[C@@H](O)[C@H](O)[C@H]2O[C@H]2C[C@](C)(N)[C@H](O)[C@H](C)O2)Oc2ccc(cc2Cl)[C@H]1O`
24

Return reported inhibition zone (IZ). Input compound: `CN(C)[C@@H]1C(O)=C(C(N)=O)C(=O)[C@@]2(O)C(O)=C3C(=O)c4c(O)cccc4[C@@](C)(O)[C@H]3C[C@@H]12`
15

---

- Test system: Staphylococcus aureus
- assay-protocol: Antibacterial activity against methicillin-resistant Staphylococcus aureus CMAH 0504 by broth microdilution method
- Format: functional
readout-label: MBC (µg/mL)
Quick reminder: number only, in µg/mL, skip the unit.

Guide cases for MBC, answers given:
compound	MBC [µg/mL]
C=CC1C[N+]2(CC(=O)c3cccc4ccccc34)CCC1CC2[C@H](O)c1ccnc2ccc(OC)cc12.[Br-] (stereo not given in full)	1.56
C=CC1C[N+]2(CC(=O)c3ccc(OC)cc3)CCC1CC2[C@H](O)c1ccnc2ccc(OC)cc12.[Br-] (stereo not given in full)	50

Return reported MBC. Input compound: C=CC1C[N+]2(CC(=O)c3ccc(Br)cc3)CCC1CC2[C@H](O)c1ccnc2ccc(OC)cc12.[Br-] (stereo not given in full)
12.5

Return reported MBC. Input compound: C=CC1C[N+]2(CC(=O)c3ccc([N+](=O)[O-])cc3)CCC1CC2[C@H](O)c1ccnc2ccc(OC)cc12.[Br-] (stereo not given in full)
50

Return reported MBC. Input compound: C=CC1C[N+]2(CC(=O)c3ccccc3)CCC1CC2[C@H](O)c1ccnc2ccc(OC)cc12.[Br-] (stereo not given in full)
25

---

Recorded inhibition zone (IZ), one value per entry.
- Tested on: Staphylococcus aureus
- assay-protocol: Antibacterial activity against methicillin-resistant Staphylococcus aureus CMAH 0430 by disk diffusion method
- Format: functional
Enter the number, and then the unit.

compound	inhibition zone (IZ)
C=CC1C[N+]2(CC(=O)c3ccc(Br)cc3)CCC1CC2[C@H](O)c1ccnc2ccc(OC)cc12.[Br-] (stereo partly drawn)	23 mm
C=CC1C[N+]2(CC(=O)c3cccc4ccccc34)CCC1CC2[C@H](O)c1ccnc2ccc(OC)cc12.[Br-] (stereo partly drawn)	26 mm

Field: next compound
Return reported inhibition zone (IZ). Input compound: O=C(N[C@H](CO)[C@H](O)c1ccc([N+](=O)[O-])cc1)C(Cl)Cl [CHLORAMPHENICOL]
27 mm
